tested on: SK-OV-3 ovarian; experiment: NCI tumour cell line growth inhibition, 48 h
Measured TGI values are reported for all entries that follow.

Query O=[N+]([O-])c1ccc(C(Br)c2ccc([N+](=O)[O-])cc2)cc1 yields TGI of 23 µM

* * *

test system: NCI-H460 lung
Please reply with one of these outcomes: active, inactive

Task: For CN(C)c1ccc(Nc2ncnc3ccccc23)cc1 , what call appears in the results of this test?
Output: inactive

* * *

tested on: U251 CNS; experiment: NCI tumour cell line growth inhibition, 48 h
endpointLabel: TGI (µM)
// return numeric value only (unit: µM, not printed)

These solved cases illustrate the format of a correct answer.
- compound: "N#Cc1c2c(c(Cl)n3c1nc1ccccc13)CCCC2"
  TGI / µM: 11.8
- compound: "Nc1ccccc1C#C/C=C\\C#Cc1cnccn1"
  TGI / µM: 41.8
- compound: "COc1ncc(-c2ccc3nccc(C#CCCCCC(=O)O)c3c2)cc1NS(=O)(=O)c1ccc(F)cc1F"
  TGI / µM: 27.8
- compound: "CCOC(=O)c1ccc2c(c1)[n+](=O)c(C(=O)C1CCCS1)c(C(F)(F)F)n2[O-] (stereo not given)"
  TGI / µM: 0.315
- compound: "O=C(C=P(c1ccccc1)(c1ccccc1)c1ccccc1)c1ccc(-c2cccc([N+](=O)[O-])c2)cc1"
  TGI / µM: 13.2

# value of TGI, U251 CNS, item O=C(ON=c1c2ccccc2ccc2ccccc12)c1ccccc1 = 39

Brc1ccc(SCN(CSc2ccc(Br)cc2)Cc2ccccc2)cc1 tested on U251 CNS gave TGI: 6.82

Noted TGI for COc1ccc(N2C(=O)C3c4[nH]c5ccccc5c4C4CCC(c5ccccc5)CC4C3C2=O)cc1 (stereo not given) , tested on U251 CNS: 21.1

* * *

test system: EKVX NSCLC; test: NCI tumour cell line growth inhibition, 48 h; in the data active means GI50 below about 0.43 µM; inactive means the rest
Choose one outcome from this list and give only that: active, inactive

- compound: "C=CCn1c(SCC(=O)Nc2ccc(C(=O)/C=C/c3cc(OC)c(OC)c(OC)c3)cc2)nnc1-c1ccc(Cl)cc1"
  category: "inactive"

Task: Give the logged outcome of this assay for the following compound: O=C(Nc1cccc(-n2ccc3c(NC(=O)c4ccccc4)nccc32)c1)Nc1ccc(Cl)c(C(F)(F)F)c1
Output: inactive

Task: Look up the recorded call for C=C1CC2(OC1=O)C(=O)N(C)c1ccc(I)cc12 (configuration not stated) in this test.
Output: inactive

Task: Hi, sorry to bother you, what did the test record for Cc1c([C@H](C(Cl)Cl)[C@H](O)[C@H]2C[C@H](C)C(=O)O2)ccc2c1C(=O)[C@H]1[C@H]2C[C@@H](Br)[C@@]23O[C@@H](CO[C@H]2O)CC13C (some centres not stated) ?
Output: inactive

Task: I would be grateful if you could indicate the recorded call for Cn1c(=O)n(CCCO)c(=O)c2c1nc(Oc1cccc(OC(F)(F)F)c1)n2Cc1ccc(Cl)cc1 .
Output: inactive

Task: What classification did COc1cccc2c1C(=O)c1c(O)c3c(c(O)c1C2=O)CC(O)(/C(C)=N/NC(=O)CCCCC(=O)N/N=C(\C)C1(O)Cc2c(O)c4c(c(O)c2C(OC2CC(N)C(O)C(C)O2)C1)C(=O)c1c(OC)cccc1C4=O)CC3OC1CC(N)C(O)C(C)O1 (configuration not stated) end up with in this test?
Output: active

Task: I would be grateful if you could indicate the recorded call for CCNCCCn1c2c(c3ccc(F)cc3c1=O)C(=O)c1cc(OC)cnc1-2 .
Output: active
